Source of measurements: PubChem BioAssay AID1845207

# Test system: NCI-H1876 tumor spheroid viability
# test_details: Anticancer human tumor NCI-H1876 cell line growth inhibition;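 further: spheroids exposed to compounds for seven days before the viability read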;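 on viability, T/C: percent of DMSO vehicle control viability so 100% = vehicle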
# experimental_context: second compound 100 µM; first compound 0.316 µM; stronger effect = lower value; spheroids with HUVEC and MSC
This listing pairs molecules with measured viability, T/C.

molecule	viability, T/C [%]
Cc1cc(C)c(CNC(=O)c2cc(-c3ccc(CN4CCOCC4)cc3)cc3c2cnn3C2CCCC2)c(=O)[nH]1 + Cn1nnc2c(C(N)=O)ncn2c1=O	47
[2H]c1nc(C)nc([2H])c1-c1cc(NC[C@@H](C)c2cccc3c(C(=O)NC)ccnc23)ncn1 + Cn1nnc2c(C(N)=O)ncn2c1=O	70.4
COc1ccc([C@@H](O)c2cc(-c3ncnc4cc(N5CCOCC5)ccc34)c(F)cc2Cl)nn1 + Cn1nnc2c(C(N)=O)ncn2c1=O	48.5

###

# Test system: NCI-H1876 tumor spheroid viability
# test_details: Anticancer human tumor NCI-H1876 cell line growth inhibition; active means viability on the fitted dose curve at most 10% of control; inactive means the rest;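 further: spheroids exposed to compounds for seven days before the viability read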
# experimental_context: second compound 0.003 µM; first compound 3 µM; spheroids with HUVEC and MSC
Possible outcomes: yes (1) for active, no (0) for inactive

compound	classification
Cc1sc2c(c1C)C(c1ccc(Cl)cc1)=NC(CC(=O)Nc1ccc(O)cc1)c1nnc(C)n1-2 (stereo not given) + CC[C@@]1(O)C(=O)OCc2c1cc1n(c2=O)Cc2cc3c(CN(C)C)c(O)ccc3nc2-1	yes (1)
Cc1sc2c(c1C)C(c1ccc(Cl)cc1)=NC(CC(=O)Nc1ccc(O)cc1)c1nnc(C)n1-2 (stereo not given) + COc1cc2c(cc1O)CCNC21CSC2c3c(OC(C)=O)c(C)c4c(c3C(COC1=O)N1C(O)C3Cc5cc(C)c(OC)c(O)c5C(C21)N3C)OCO4	yes (1)
Cn1ncnc1[C@H]1c2n[nH]c(=O)c3cc(F)cc(c23)N[C@@H]1c1ccc(F)cc1 + CC[C@@]1(O)C(=O)OCc2c1cc1n(c2=O)Cc2cc3c(CN(C)C)c(O)ccc3nc2-1	yes (1)
O=C(c1cc(Cc2n[nH]c(=O)c3ccccc23)ccc1F)N1CCN(C(=O)C2CC2)CC1 + CC[C@@]1(O)C(=O)OCc2c1cc1n(c2=O)Cc2cc3c(CN(C)C)c(O)ccc3nc2-1	no (0)
CNCc1ccc(-c2cc(-c3nc(-c4ccc(S(=O)(=O)C(C)C)cc4)cnc3N)on2)cc1 + CC[C@@]1(O)C(=O)OCc2c1cc1n(c2=O)Cc2cc3c(CN(C)C)c(O)ccc3nc2-1	yes (1)

###

Here, each record is paired with measured pIC50 data.
# Tested on: NCI-H1876 tumor spheroid viability
# test_details: Anticancer human tumor NCI-H1876 cell line growth inhibition;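 further: spheroids exposed to compounds for seven days before the viability read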
# experimental_context: curve of first compound; second compound 30 pM; spheroids with HUVEC and MSC
# Experimental: Multicellular complex tumor spheroid response to DNA repair inhibitors in combination with DNA-damaging drugs This study explores the anticancer activities of DNA-damaging drugs and inhibitors of DNA damage repair, both as single agents and in combinations. […] Twenty-six patient-derived or established malignant cell lines were evaluated representing sarcoma, melanoma, small cell lung cancer (SCLC), non-small cell lung cancer (NSCLC), as well as bladder, ovarian and pancreatic cancers. […]
pIC50: −log10 of the molar value.
attribute_measured: pIC50

compound	attribute_measured	recorded_measurement
Cc1sc2c(c1C)C(c1ccc(Cl)cc1)=NC(CC(=O)Nc1ccc(O)cc1)c1nnc(C)n1-2 (stereo not given) + COc1cc2c(cc1O)CCNC21CSC2c3c(OC(C)=O)c(C)c4c(c3C(COC1=O)N1C(O)C3Cc5cc(C)c(OC)c(O)c5C(C21)N3C)OCO4	pIC50	6.58
CNCc1ccc(-c2cc(-c3nc(-c4ccc(S(=O)(=O)C(C)C)cc4)cnc3N)on2)cc1 + COc1cc2c(cc1O)CCNC21CSC2c3c(OC(C)=O)c(C)c4c(c3C(COC1=O)N1C(O)C3Cc5cc(C)c(OC)c(O)c5C(C21)N3C)OCO4	pIC50	6.24
COc1ccc([C@@H](O)c2cc(-c3ncnc4cc(N5CCOCC5)ccc34)c(F)cc2Cl)nn1 + COc1cc2c(cc1O)CCNC21CSC2c3c(OC(C)=O)c(C)c4c(c3C(COC1=O)N1C(O)C3Cc5cc(C)c(OC)c(O)c5C(C21)N3C)OCO4	pIC50	5.60
O=C(c1cc(Cc2n[nH]c(=O)c3ccccc23)ccc1F)N1CCN(C(=O)C2CC2)CC1 + COc1cc2c(cc1O)CCNC21CSC2c3c(OC(C)=O)c(C)c4c(c3C(COC1=O)N1C(O)C3Cc5cc(C)c(OC)c(O)c5C(C21)N3C)OCO4	pIC50	5.48
Cn1ncnc1[C@H]1c2n[nH]c(=O)c3cc(F)cc(c23)N[C@@H]1c1ccc(F)cc1 + COc1cc2c(cc1O)CCNC21CSC2c3c(OC(C)=O)c(C)c4c(c3C(COC1=O)N1C(O)C3Cc5cc(C)c(OC)c(O)c5C(C21)N3C)OCO4	pIC50	7.45
